- assaySystem: T1, human Sortilin Fc fusion protein (human, UniProt Q99523 78-755)
- T1 construct: whole entry named; also called hSort-Fc
- experimentNotes: ForteBio, avid;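 further: whole IgG captured on AHQ sensors, then contacted with Sortilin Fc fusion antigen at 100 nM, followed by an off-rate phase in buffer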
# Lookup of reported pKd keyed by entry
Entry type: numeric. Quantity: pKd, the -log10 of concentration in molar units.

[[record]]
binder = "S-51 (antibody, V domains shown, IgG) VH: QVQLVESGGGVVQPGRSLRLSCAASGFTFSSYGMHWVRQAPGKGLEWVAVISYDGSNKYYADSVKGRFTISRDNSKNTLYLQMNSLRAEDTAVYYCAKGLEYYDSSRLYYPYYYYMDVWGKGTTVTVSS VL: EIVLTQSPATLSLSPGERATLSCRASQSVSSYLAWYQQKPGQAPRLLIYDASKRATGIPARFSGSGSGTDFTLTISSLEPEDFAVYYCQQRSNYPITFGGGTKVEIK"
assayvalue = 8.39


Q: # query: pKd of entry S-22 (antibody, V domains shown, IgG) VH: QVQLVQSGAEVKKPGSSVKVSCKASGGTFSSYAISWVRQAPGQGLEWMGGIIPIFGTASYAQKFQGRVTITADESTSTAYMELSSLRSEDTAVYYCARQGRKTGYYYYYGMDVWGQGTTVTVSS VL: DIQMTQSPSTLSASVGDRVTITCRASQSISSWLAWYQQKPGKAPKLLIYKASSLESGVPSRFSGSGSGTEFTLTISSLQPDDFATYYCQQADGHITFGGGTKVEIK
A: 9.00
